Assay Target: T1, human IL-22 (human, UniProt Q9GZX6 34-179)
T1 sequence: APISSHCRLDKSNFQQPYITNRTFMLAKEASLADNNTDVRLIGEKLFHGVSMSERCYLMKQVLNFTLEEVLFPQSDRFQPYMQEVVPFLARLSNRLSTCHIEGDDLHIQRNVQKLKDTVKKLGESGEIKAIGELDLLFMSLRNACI
Test Description: cell-based or functional assay
Measured IC50 of scFv (pM) in BaF3-IL-22 proliferation assay accompanies every entry in the list below.
Dear colleague, please return just the value in pM, with no unit written.

Examples with answers:
Binder	Unit	Reported
166B06 scFv (non-germlined) (scFv) scFv: EVQLVQSGAEVKKPGASVKVSCQASGYTFSDYYIHWVRQTPGQGFEWMGWVNPDTGGTRYAQKFQGWVTMTRDMSNTTAYMELPRLRDDDTAVYYCARDLTGFDPFDIWGQGTLVTVSSGGGSSGGGGSGGGGSAQSVLTQPPSVSVAPGKTATITCGGNNFRNKRVHWYQQRPGQAPVLVIYYDSDRPSGIPERFSGSRSGNTATLTISRVEAGDEADFYCQVWDLFNDNGVFGGGTKLTVLGAAAH	pM	460
367D04 scFv (non-germlined) (scFv) scFv: EVQLVESGGGVVRPGGSLRLSCAASGFTFDDYGMNWVRQAPGKGLEWVSGVNWNGGTRDYAASVKGRFTISRDNAKNSLYLQMNSLRAEDTALYYCARGWYSGSPWSLGHWGRGTLVTVSSGGGGSGGGGSGGSGGGSGGSGGGSSGGGSGGGGSAQAVLTQPSSVSGSPGQSVTISCTGASGDVGAYNFVSWYQQHPGKTPKLIIYDVNKRPSGVSNRFSGSKSGNTASLTISRLQAEDESDYYCSSYTSRYTTEFGGGTKVTVLGAAAH	pM	160

Attention now shifts to the item below.
Query :: Query (binder): 368D04 scFv (non-germlined) (scFv) scFv: EVQLVESGGGVVRPGGSLRLSCAASGFTFDDYGMNWVRQAPGKGLEWVSGVNWNGGTRDYAASVKGRFTISRDNAKNSLYLQMNSLRAEDTALYYCARGWYSGAAWNMGYWGRGTLVTVSSGGGGSGGGGSGGSGGGSGGGGGGSGGGGSAQAVLTQPSSVSGSPGQSITISCTGASGDVGAYNFVSWYQQHPGKTPKLIIYDVNKRPSGVSNRFSGSKSGNTASLTISGLQAEDESDYYCASLVSDFSVVFGGGTKVTVLGAAAH ; field requested: IC50 of scFv (pM) in BaF3-IL-22 proliferation assay
Result :: 186
